system: Botulinum neurotoxin type F light chain protease (Clostridium botulinum); assay: Botulinum neurotoxin type F light chain protease inhibition, multiplex microsphere flow cytometry, validation set (AID 588459); settings: multiplex microsphere protease substrate cleavage assay, at 10 µM, active compounds read high
parameter: inhibition (%)
Give bare numbers, in %.

In the examples that follow, each entry is paired with its recorded inhibition.
compound | inhibition, %
CC12CN3CC(C)(CN(C1)C3c1cccnc1)C2=O (stereo not given) | -1.6
COc1ccc2cc(C(=O)Nc3ccc(S(N)(=O)=O)cc3)sc(=O)c2c1OC | 4.2
CN(C)c1ccc(CNCCC(Cc2ccccc2)c2ccco2)cc1 (stereo not given) | -4.5
O=C(c1ccc([N+](=O)[O-])cc1)N1CCSC1c1ccccc1Cl (stereo not given) | -3.8
N/C(=N/OS(=O)(=O)c1ccc([N+](=O)[O-])cc1)c1ccncc1 | 2.2
CCC(C)n1ncn(-c2ccc(N3CCN(c4ccc(OCC5COC(Cn6cncn6)(c6ccc(Cl)cc6Cl)O5)cc4)CC3)cc2)c1=O (stereo not given) | 2.7
COc1ccc(C2C3=C(CC(C)(C)CC3=O)N(C)C3=C2C(=O)CC(C)(C)C3)cc1 | 2
CN1CCC(=C2c3ccccc3CC(=O)c3sccc32)CC1 | 8
COc1ccc(CCNc2ncnc3c2[nH]c2cc(OC)c(OC)cc23)cc1OC | -0.5

Moving on to the next compound.
Req: State the recorded inhibition for this entry: COC1=CC(=O)CC(C)C12Oc1c(Cl)c(OC)cc(OC)c1C2=O (stereo not given)
Resp: -0.7
